EC50 values by entry
- Target: Casein kinase I isoform epsilon (Homo sapiens, UniProt P49674)
- Sequence (P49674 whole entry, canonical isoform): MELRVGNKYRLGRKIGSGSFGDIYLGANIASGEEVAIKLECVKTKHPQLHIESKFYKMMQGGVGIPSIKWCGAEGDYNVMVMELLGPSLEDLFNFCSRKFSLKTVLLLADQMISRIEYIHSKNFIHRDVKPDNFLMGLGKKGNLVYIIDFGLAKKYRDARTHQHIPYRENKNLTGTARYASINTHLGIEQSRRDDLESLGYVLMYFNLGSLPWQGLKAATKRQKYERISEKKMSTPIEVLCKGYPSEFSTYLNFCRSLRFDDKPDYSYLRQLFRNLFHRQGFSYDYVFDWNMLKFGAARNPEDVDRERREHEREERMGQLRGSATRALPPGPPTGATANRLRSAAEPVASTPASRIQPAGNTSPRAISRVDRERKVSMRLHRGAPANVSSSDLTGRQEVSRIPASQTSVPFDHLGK
- Protocol Details: Inhibition of recombinant human full-length N-terminal GST-tagged CK1epsilon expressed in baculovirus infected Sf9 insect cells using casein as substrate measured after 60 mins by ADP-glo kinase assay
# output: number + unit

Query block: Bench note: what EC50 did Nc1ncnc2c1c(COc1cccc(Cl)c1)nn2C1CCOCC1 show?
Result block: 0.0074 µM

Further cases:
Query block: Bench note: what EC50 did CC(C)Oc1ccc(-c2nn([C@@H](C)c3oc4ccc(F)cc4c(=O)c3-c3cccc(F)c3)c3ncnc(N)c23)cc1F [UMBRALISIB] show?
Result block: 6 µM

Query block: Bench note: what EC50 did CC[C@@H](c1nc2cccc(F)c2c(=O)n1-c1ccccc1)n1nc(-c2ccc(OC(C)C)c(F)c2)c2c(N)ncnc21 show?
Result block: 81.2 µM

Query block: Bench note: what EC50 did CC(C)Oc1ccc(-c2nn([C@@H](C)c3nc4cccc(F)c4c(=O)n3-c3ccccc3)c3ncnc(N)c23)cc1F show?
Result block: 9.36 µM
